Source: patent US12226412B2

Biological target: human recombinant GR (Homo sapiens, UniProt P04150)
Construct: purchased PanVera P2812
Sequence (P04150 1-777): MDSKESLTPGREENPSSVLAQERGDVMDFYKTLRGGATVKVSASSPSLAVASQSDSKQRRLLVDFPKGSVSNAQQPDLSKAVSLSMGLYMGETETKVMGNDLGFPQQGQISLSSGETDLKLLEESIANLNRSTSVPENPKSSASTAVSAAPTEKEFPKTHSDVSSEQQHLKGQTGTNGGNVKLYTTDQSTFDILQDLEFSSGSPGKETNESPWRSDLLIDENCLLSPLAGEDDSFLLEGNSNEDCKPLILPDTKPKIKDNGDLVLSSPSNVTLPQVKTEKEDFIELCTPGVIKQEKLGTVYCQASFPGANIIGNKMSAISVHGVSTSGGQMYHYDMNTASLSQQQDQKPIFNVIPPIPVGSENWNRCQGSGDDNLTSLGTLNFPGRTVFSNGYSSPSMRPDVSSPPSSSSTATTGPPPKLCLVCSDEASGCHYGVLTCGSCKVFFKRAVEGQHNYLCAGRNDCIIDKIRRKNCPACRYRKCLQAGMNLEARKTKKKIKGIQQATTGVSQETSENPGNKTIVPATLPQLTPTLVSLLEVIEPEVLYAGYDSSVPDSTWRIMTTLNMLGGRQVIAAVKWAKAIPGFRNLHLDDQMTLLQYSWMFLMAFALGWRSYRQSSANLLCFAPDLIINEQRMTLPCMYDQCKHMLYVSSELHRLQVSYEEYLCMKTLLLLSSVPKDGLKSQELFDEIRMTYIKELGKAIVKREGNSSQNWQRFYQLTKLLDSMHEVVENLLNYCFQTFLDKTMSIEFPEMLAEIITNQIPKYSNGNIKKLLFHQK
Experiment: Human glucocorticoid receptor (GR) fluorescence polarisation (FP) binding assay
Settings: human recombinant GR, fluorescence polarisation binding assay; read-out: GR binding
Ki reference

Would you please look over these solved cases?
>>> result("Cn1cc(C(=O)[C@]23Cc4cnn(-c5ccc(F)cc5)c4C=C2CCN(S(=O)(=O)c2ccc(Cl)c(Cl)c2)C3)cn1 [Example 11CC]")
"> 1 nM"
>>> result("Cc1n[nH]c(C)c1S(=O)(=O)N1CCC2=Cc3c(cnn3-c3ccc(F)cc3)C[C@]2(C(=O)c2cc(C(F)(F)F)ccn2)C1 [Example 2V]")
"> 1 nM"
>>> result("Cc1ccnc(C(=O)[C@]23Cc4cnn(-c5ccc(F)cc5)c4C=C2CCN(S(=O)(=O)c2cccc(C#N)c2)C3)c1 [Example 11S]")
"< 0.5 nM"
>>> result("Cn1ccc(S(=O)(=O)N2CCC3=Cc4c(cnn4-c4ccc(F)cc4)C[C@]3(C(=O)c3ccccn3)C2)n1 [Example 11BJ]")
"< 0.5 nM"
>>> result("CCCn1cc(S(=O)(=O)N2CCC3=Cc4c(cnn4-c4ccc(F)cc4)C[C@]3(C(=O)c3nccs3)C2)cn1 [Example 12Y]")
"< 0.5 nM"
>>> result("O=C(c1ncco1)[C@]12Cc3cnn(-c4ccc(F)cc4)c3C=C1CCN(S(=O)(=O)c1ccc(C(F)(F)F)cc1)C2 [Example 1F]")
"< 0.5 nM"
>>> result("O=C(c1nccs1)[C@]12Cc3cnn(-c4ccc(F)cc4)c3C=C1CCN(S(=O)(=O)c1cccc(N3CCCC3)c1)C2 [Example 6A]")
"< 0.5 nM"
>>> result("COc1ccc(S(=O)(=O)N2CCC3=Cc4c(cnn4-c4ccc(F)cc4)C[C@]3(C(=O)c3ccccn3)C2)cc1 [Example 2I]")
"< 0.5 nM"

# next molecule below
Value lookup for Ki; key = CCCn1cc(S(=O)(=O)N2CCC3=Cc4c(cnn4-c4ccc(F)cc4)C[C@]3(C(=O)c3cscn3)C2)cn1 [Example 11CZ]
< 0.5 nM

====

Ki reference
test system: induction of TAT by dexamethasone in HepG2 cells; assay: HepG2 tyrosine aminotransferase (TAT) assay; assay type: cell-based, human; settings: HepG2 cells, challenge of 100 nM dexamethasone; Ki from IC50 by Cheng and Prusoff equation

Would you please look over these solved cases?
>>> result("Cc1cnc(C(=O)[C@]23Cc4cnn(-c5ccc(F)cc5)c4C=C2CCN(S(=O)(=O)c2ccn(C)n2)C3)s1 [Example 12S]")
"< 20 nM"
>>> result("O=C(c1cscn1)[C@]12Cc3cnn(-c4ccc(F)cc4)c3C=C1CCN(S(=O)(=O)c1ccc(C(F)(F)F)cc1)C2 [Example 11]")
"20 to 100 nM"
>>> result("Cc1c(S(=O)(=O)N2CCC3=Cc4c(cnn4-c4ccc(F)cc4)C[C@]3(C(=O)c3cc(C(F)(F)F)ccn3)C2)cnn1C [Example 11BN]")
"< 20 nM"
>>> result("Cc1ccnc(C(=O)[C@]23Cc4cnn(-c5ccc(F)cc5)c4C=C2CCN(S(=O)(=O)c2ccc4c(c2)CCO4)C3)c1 [Example 11AN]")
"< 20 nM"

State its Ki on induction of TAT by dexamethasone in HepG2 cells: O=C(c1nccs1)[C@]12Cc3cnn(-c4ccc(F)cc4)c3C=C1CCN(S(=O)(=O)c1cc(F)c(F)c(F)c1)C2 [Example 12J]
20 to 100 nM

State its Ki on induction of TAT by dexamethasone in HepG2 cells: Cc1ccnc(C(=O)[C@]23Cc4cnn(-c5ccc(F)cc5)c4C=C2CCN(S(=O)(=O)c2cccc(S(C)(=O)=O)c2)C3)c1 [Example 11AP]
< 20 nM

State its Ki on induction of TAT by dexamethasone in HepG2 cells: Cc1cnc(C(=O)[C@]23Cc4cnn(-c5ccc(F)cc5)c4C=C2CCN(S(=O)(=O)c2ccc(Cl)c(F)c2)C3)s1 [Example 12R]
< 20 nM

State its Ki on induction of TAT by dexamethasone in HepG2 cells: O=C(c1nccs1)[C@]12Cc3cnn(-c4ccc(F)cc4)c3C=C1CCN(S(=O)(=O)c1ccc(N3CCCC3)nc1)C2 [Example 4]
≥ 100 nM

State its Ki on induction of TAT by dexamethasone in HepG2 cells: CCCn1cc(S(=O)(=O)N2CCC3=Cc4c(cnn4-c4ccc(F)cc4)C[C@]3(C(=O)c3cscn3)C2)nn1 [Example 11CS]
< 20 nM

State its Ki on induction of TAT by dexamethasone in HepG2 cells: O=C(c1nccs1)[C@]12Cc3cnn(-c4ccc(F)cc4)c3C=C1CCN(S(=O)(=O)c1cccc(F)c1)C2 [Example 5A]
< 20 nM

====

tested on: induction of TAT by dexamethasone in HepG2 cells; test: HepG2 tyrosine aminotransferase (TAT) assay; format: cell-based, human; settings: HepG2 cells, challenge of 100 nM dexamethasone; Ki from IC50 by Cheng and Prusoff equation
Ki reference

>>> result("O=C(c1ccccn1)[C@]12Cc3cnn(-c4ccc(F)cc4)c3C=C1CCN(S(=O)(=O)c1ccccc1F)C2")
"< 20 nM"
>>> result("Cc1cccc(S(=O)(=O)N2CCC3=Cc4c(cnn4-c4ccc(F)cc4)C[C@]3(C(=O)c3nccs3)C2)c1 [Example 12A]")
"< 20 nM"
>>> result("CC(C)n1ncc(S(=O)(=O)N2CCC3=Cc4c(cnn4-c4ccc(F)cc4)C[C@]3(C(=O)c3ccccn3)C2)n1 [Example 11CT]")
"< 20 nM"
>>> result("Cn1ncc(S(=O)(=O)N2CCC3=Cc4c(cnn4-c4ccc(F)cc4)C[C@]3(C(=O)c3cc(C(F)(F)F)ccn3)C2)n1 [Example 11CE]")
"< 20 nM"

Value lookup for Ki; key = O=C(c1cc(C(F)(F)F)ccn1)[C@]12Cc3cnn(-c4ccc(F)cc4)c3C=C1CCN(S(=O)(=O)c1cc(F)c(F)c(F)c1)C2 [Example 11BQ]
< 20 nM

Value lookup for Ki; key = O=C(c1ccccn1)[C@]12Cc3cnn(-c4cccnc4)c3C=C1CCN(S(=O)(=O)c1cccc(C(F)(F)F)c1)C2 [Example 15A]
20 to 100 nM

Value lookup for Ki; key = `O=C(c1ccccn1)[C@]12Cc3cnn(-c4ccc(F)cc4)c3C=C1CCN(S(=O)(=O)C1CCCCC1)C2`
≥ 100 nM

====

pKi reference
Target: human recombinant GR (Homo sapiens)
Construct: purchased PanVera P2812
Sequence (P04150 1-777): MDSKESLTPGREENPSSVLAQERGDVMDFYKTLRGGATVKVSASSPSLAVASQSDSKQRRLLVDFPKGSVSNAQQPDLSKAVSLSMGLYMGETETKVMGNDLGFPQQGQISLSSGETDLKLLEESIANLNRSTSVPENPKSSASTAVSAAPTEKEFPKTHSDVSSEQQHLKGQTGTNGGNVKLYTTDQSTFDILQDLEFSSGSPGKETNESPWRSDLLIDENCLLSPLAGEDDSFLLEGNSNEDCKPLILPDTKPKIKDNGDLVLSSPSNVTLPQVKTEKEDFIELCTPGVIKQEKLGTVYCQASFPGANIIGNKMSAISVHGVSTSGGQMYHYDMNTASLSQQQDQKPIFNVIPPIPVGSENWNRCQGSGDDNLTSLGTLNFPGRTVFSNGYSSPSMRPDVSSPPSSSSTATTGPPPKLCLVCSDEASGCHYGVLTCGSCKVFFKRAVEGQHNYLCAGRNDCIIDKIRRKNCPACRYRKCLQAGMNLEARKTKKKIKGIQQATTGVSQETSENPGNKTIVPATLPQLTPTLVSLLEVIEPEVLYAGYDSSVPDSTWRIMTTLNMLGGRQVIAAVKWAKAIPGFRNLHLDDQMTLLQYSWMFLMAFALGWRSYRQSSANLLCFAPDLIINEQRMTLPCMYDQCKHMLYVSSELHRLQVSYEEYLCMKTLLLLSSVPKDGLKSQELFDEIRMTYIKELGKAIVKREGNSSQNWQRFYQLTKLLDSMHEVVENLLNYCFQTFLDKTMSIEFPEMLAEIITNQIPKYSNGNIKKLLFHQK
Assay: Human glucocorticoid receptor (GR) fluorescence polarisation (FP) binding assay
Conditions: human recombinant GR, fluorescence polarisation binding assay; read-out: GR binding
pKi: −log10 of the molar value.

>>> result("Cn1ncc(S(=O)(=O)N2CCC3=Cc4c(cnn4-c4ccc(F)cc4)C[C@]3(C(=O)c3ccccn3)C2)n1 (single isomer, unassigned) [Example 11DB]")
"> 9.30"

Value lookup for pKi; key = Cn1ncc(S(=O)(=O)N2CCC3=Cc4c(cnn4-c4ccc(F)cc4)C[C@]3(C(=O)c3cscn3)C2)n1 (single isomer, unassigned) [Example 11DA]
> 9.30

Value lookup for pKi; key = CCCn1ncc(S(=O)(=O)N2CCC3=Cc4c(cnn4-c4ccc(F)cc4)C[C@]3(C(=O)c3ccccn3)C2)n1 [Example 11CN]
> 9.30

Value lookup for pKi; key = `O=C(c1nccs1)[C@]12Cc3cnn(-c4ccc(F)cc4)c3C=C1CCN(S(=O)(=O)c1ccc(F)cc1)C2`
> 9.30
